# Tested on: HEK293
# Procedure text: cells
# Format: functional
# Assay context: Homo sapiens, ATCC CRL1573, HEK293; ASSAY_TEST Inhibition of Cell Viability; detection method Resazurin; Fluorescence (ex560/em590); MEDIA DMEM with 10% FBS; plate type 384well; TC; CORNING #3712; time 18 hr
Measure name: CC50 (µM)
Return type: number; implicit unit µM.

Examples with their reported CC50 follow.
compound="COC(=O)C1C(O)C(C)C(O)C(C)/C=C\\C=C(/C)C(=O)Nc2c(C)c(OC(C)=O)c3c(c2O)C(=O)C(C)=C2OCOC(=C23)/C(C)=C/C(C)(O)C(O)C(C)C1O (configuration not stated)" data_value=9.11
compound=Cn1cnc([N+](=O)[O-])c1S(=O)(=O)Oc1cccc2ccccc12 data_value=8.21

Per the records, this compound ( `CN1CCN(c2ccc([N+](=O)[O-])c3no[n+]([O-])c23)CC1` ) has CC50 equal to 0.755
